# EXPERIMENT: amyloid nucleation score (Sup35N fusion, yeast selection) (log enrichment); library NNK1; higher = more nucleation; inactive = no reads after selection;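 note: zero at mode of non-aggregating sequences after 7 days selection at 30°C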
MEASUREMENT KIND: amyloid nucleation score
Answer as a number with no unit attached.

Recorded amyloid nucleation score, per entry:
[
  {
    "SEQUENCE RECORD": "VFSDQQDHQHGWTYETSLSA",
    "MEASURED VALUE": 0.619
  },
  {
    "SEQUENCE RECORD": "TEDAQRGD",
    "MEASURED VALUE": -0.302
  },
  {
    "SEQUENCE RECORD": "SCKYSAQNLWHLFYRNSLSS",
    "MEASURED VALUE": -2.29
  }
]

Problem: Tell me the measured amyloid nucleation score of RFISVMSLSLLNNNFIEAHV , please.
Result: 0.55

Problem: What do you have for SNPRTFNDPSKPRV ?
Result: 0.518

====

Some substances, each annotated with its measured amyloid nucleation score.
# EXPERIMENT: amyloid nucleation score (Sup35N fusion, yeast selection) (log enrichment); library NNK1; higher = more nucleation; inactive = no reads after selection
Answer as a number with no unit attached.

Recorded amyloid nucleation score, per entry:
[
  {
    "SUBSTANCE": "FGYSAGHERMVHCVGLRSSG",
    "MEASURED VALUE": 1.37
  },
  {
    "SUBSTANCE": "GTVSGYYVRVGNFAMYYQAY",
    "MEASURED VALUE": 1.91
  },
  {
    "SUBSTANCE": "VGNSSGWLTNHLAEKRGQTM",
    "MEASURED VALUE": 0.268
  }
]

# input for lookup
Problem: Tell me the measured amyloid nucleation score of AYSDVYQLFYLKYMFCNWLL , please.
Result: 2.89

====

Some substances, each annotated with its measured amyloid nucleation score.
# EXPERIMENT: amyloid nucleation score (Sup35N fusion, yeast selection) (log enrichment); library NNK1; higher = more nucleation; inactive = no reads after selection
Answer as a number with no unit attached.

Problem: Tell me the measured amyloid nucleation score of ILPRNFVSTNVANRFIEGSS , please.
Result: 0.932

====

# EXPERIMENT: amyloid nucleation score (Sup35N fusion, yeast selection) (log enrichment); library NNK1; higher = more nucleation; inactive = no reads after selection
MET means recorded amyloid nucleation score is 0.6 or above; NOT MET means it is below 0.6.

Some solved entries appear below for comparison.
[
  {
    "SUBSTANCE": "YRDFGGN",
    "CATEGORY": "NOT MET"
  },
  {
    "SUBSTANCE": "WRWYEGGLTLSWSHASSA",
    "CATEGORY": "NOT MET"
  },
  {
    "SUBSTANCE": "LSIRYWCYNLRLVQAHCFRV",
    "CATEGORY": "NOT MET"
  },
  {
    "SUBSTANCE": "SNREFLQSVVLW",
    "CATEGORY": "NOT MET"
  }
]

Problem: Is amyloid nucleation score for CTAYYMLGGGRNLNHPLMWV at or above 0.6?
Result: NOT MET

Problem: What do you have for DGKHWTDYLVMY ?
Result: MET

Problem: What do you have for SYYSGFRMATVSHRIRWRSM ?
Result: MET

Problem: What do you have for CLYAIKLCM ?
Result: MET

====

Some substances, each annotated with its measured amyloid nucleation score.
# EXPERIMENT: amyloid nucleation score (Sup35N fusion, yeast selection) (log enrichment); library NNK2; higher = more nucleation; inactive = no reads after selection
Answer as a number with no unit attached.

[
  {
    "SUBSTANCE": "TLETSNILFYGEDVKLSSQV",
    "amyloid nucleation score": 0.078
  },
  {
    "SUBSTANCE": "HWDQLV",
    "amyloid nucleation score": -0.504
  },
  {
    "SUBSTANCE": "SMFGRRVWLDCNQPAGGRFA",
    "amyloid nucleation score": 0.118
  },
  {
    "SUBSTANCE": "TFWNFGLAVQTARGIWALSW",
    "amyloid nucleation score": 6.57
  },
  {
    "SUBSTANCE": "MCTGVPINGFWVCPYDQSGK",
    "amyloid nucleation score": 0.108
  },
  {
    "SUBSTANCE": "RAYFTSKMCIRQTWTEKILY",
    "amyloid nucleation score": 5.13
  },
  {
    "SUBSTANCE": "DGSHLSKTDVK",
    "amyloid nucleation score": 0.113
  },
  {
    "SUBSTANCE": "KVESVKHRQNKGFYCWLVRN",
    "amyloid nucleation score": -1.25
  },
  {
    "SUBSTANCE": "APCNKESIKRARGWAVRWSW",
    "amyloid nucleation score": 3.12
  },
  {
    "SUBSTANCE": "LLWQTYIPNAGENAVSSQLF",
    "amyloid nucleation score": -0.87
  }
]

Problem: Tell me the measured amyloid nucleation score of LPKREPGDKGTLLYYDQELS , please.
Result: 0.167

Problem: What do you have for RNGVNRLELGFLIETLHNAC ?
Result: 4.62

====

# EXPERIMENT: amyloid nucleation score (Sup35N fusion, yeast selection) (log enrichment); library NNK1; higher = more nucleation; inactive = no reads after selection
MEASUREMENT KIND: amyloid nucleation score
Answer as a number with no unit attached.

Recorded amyloid nucleation score, per entry:
[
  {
    "SUBSTANCE": "TVNCGQSSMWDFWTGLTECG",
    "MEASURED VALUE": -0.22
  },
  {
    "SUBSTANCE": "CSLSSRNDLGCIMVLLYAWI",
    "MEASURED VALUE": 0.605
  },
  {
    "SUBSTANCE": "YFSTRKYTSKGYCVRTLFAY",
    "MEASURED VALUE": -0.406
  },
  {
    "SUBSTANCE": "TAAGSNQSEAFFFTNIISE",
    "MEASURED VALUE": 0.078
  },
  {
    "SUBSTANCE": "CYVLRSRSCLVFLMVYRGRV",
    "MEASURED VALUE": 4.95
  },
  {
    "SUBSTANCE": "NRACRMMQWS",
    "MEASURED VALUE": -0.441
  },
  {
    "SUBSTANCE": "YRFQTSISNCYSAERDWGT",
    "MEASURED VALUE": 1.37
  },
  {
    "SUBSTANCE": "CPLEDLIKRLNHLYVH",
    "MEASURED VALUE": 0.21
  }
]

Problem: Tell me the measured amyloid nucleation score of CVCMVRYGVRAHR , please.
Result: 0.469

Problem: What do you have for YFSDKVSSAFT ?
Result: 0.318

Problem: What do you have for QDLICVFMGCVIS ?
Result: 7.94

Problem: What do you have for IRVSFCWSNLHNNYNSGRAT ?
Result: 5.02

Problem: What do you have for FVAVNILDMMKAYKLFENLF ?
Result: -0.256

====

# EXPERIMENT: amyloid nucleation score (Sup35N fusion, yeast selection) (log enrichment); library NNK1; higher = more nucleation; inactive = no reads after selection
Assign a class from recorded amyloid nucleation score; defined classes: group A: < -0.2; group B: ≥ -0.2 and < -0.02; group C: ≥ -0.02

Some solved entries appear below for comparison.
[
  {
    "SUBSTANCE": "LRYSYTRDHSGTPYPSTGNS",
    "CATEGORY": "group A"
  },
  {
    "SUBSTANCE": "VGWFSNESWYLAVNDYGPA",
    "CATEGORY": "group C"
  },
  {
    "SUBSTANCE": "QFESIGCVEWYMFGIREVFS",
    "CATEGORY": "group A"
  },
  {
    "SUBSTANCE": "KKVGRHFDLCALDRTQSGCW",
    "CATEGORY": "group B"
  },
  {
    "SUBSTANCE": "SIVIIG",
    "CATEGORY": "group B"
  }
]

Problem: Assign a category based on measured amyloid nucleation score for TCEESEDDGGIMAVPDWM and give only the class name.
Result: group A

Problem: What do you have for YWNRRYIGTPLNM ?
Result: group A

Problem: What do you have for KVWSLKLSFGSLNMPMGYV ?
Result: group C

Problem: What do you have for LVLANTDSLTLWFLVTYLTC ?
Result: group A

Problem: What do you have for GEFESSNVRSACSGGYFRAA ?
Result: group B

Problem: What do you have for YHSWECLHRTANIIWEYFRD ?
Result: group C

Problem: What do you have for STCGCRPGLLFWARSPYN ?
Result: group A

Problem: What do you have for DTPNISAFYLWNLRKRLMIF ?
Result: group B

Problem: What do you have for PINGEGSVSTLNDMVLSRSI ?
Result: group C

Problem: What do you have for TEMDDF ?
Result: group C

Problem: What do you have for DSKLLSPDFRGRLIYRIFDD ?
Result: group B

Problem: What do you have for NINPHLLTISFHWLRPQLAP ?
Result: group A

Problem: What do you have for SVSYTPVLHCCYCIMKWNPW ?
Result: group C

Problem: What do you have for GHCGPEKREIDVAGVWVERS ?
Result: group B

Problem: What do you have for LISFSCVVNSLAEPRYIFLS ?
Result: group C
